Catalogue of binders with associated kd var/kd wt
Molecular target: T1, human TGFβ2 (human, UniProt P61812 303-414)
T1 construct: also called TGFβ2 homodimer
T1 sequence: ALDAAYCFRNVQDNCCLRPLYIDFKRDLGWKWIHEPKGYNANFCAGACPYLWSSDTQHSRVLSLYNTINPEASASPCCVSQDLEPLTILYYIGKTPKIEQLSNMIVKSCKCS
Assay: Biacore off-rate vs wt GC1008, 50 nM
Respond with the number and no other words.

# BINDER, QUANTITY, MEASUREMENT
rows = [
    ("D56C (antibody, V domains shown, GC1008 IgG4 variant) VH: QVQLVQSGAEVKKPGSSVKVSCKASGYTFSSNVISWVRQAPGQGLEWMGGVIPIVCIANYAQRFKGRVTITADESTSTTYMELSSLRSEDTAVYYCASTLGLVLDAMDYWGQGTLVTVSS VL: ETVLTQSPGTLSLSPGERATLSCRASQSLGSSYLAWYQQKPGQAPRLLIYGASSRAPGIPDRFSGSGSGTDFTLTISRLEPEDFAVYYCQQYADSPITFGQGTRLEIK", "kd var/kd wt", 1.3),
    ("S30D (antibody, V domains shown, GC1008 IgG4 variant) VH: QVQLVQSGAEVKKPGSSVKVSCKASGYTFDSNVISWVRQAPGQGLEWMGGVIPIVDIANYAQRFKGRVTITADESTSTTYMELSSLRSEDTAVYYCASTLGLVLDAMDYWGQGTLVTVSS VL: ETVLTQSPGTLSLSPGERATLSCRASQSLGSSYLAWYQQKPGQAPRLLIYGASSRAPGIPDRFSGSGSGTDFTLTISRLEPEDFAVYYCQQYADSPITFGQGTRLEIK", "kd var/kd wt", 1.2),
    ("E74T (antibody, V domains shown, GC1008 IgG4 variant) VH: QVQLVQSGAEVKKPGSSVKVSCKASGYTFSSNVISWVRQAPGQGLEWMGGVIPIVDIANYAQRFKGRVTITADTSTSTTYMELSSLRSEDTAVYYCASTLGLVLDAMDYWGQGTLVTVSS VL: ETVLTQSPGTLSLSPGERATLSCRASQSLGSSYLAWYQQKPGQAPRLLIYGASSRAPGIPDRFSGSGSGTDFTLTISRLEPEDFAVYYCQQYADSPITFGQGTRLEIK", "kd var/kd wt", 0.9),
    ("Y27G (antibody, V domains shown, GC1008 IgG4 variant) VH: QVQLVQSGAEVKKPGSSVKVSCKASGGTFSSNVISWVRQAPGQGLEWMGGVIPIVDIANYAQRFKGRVTITADESTSTTYMELSSLRSEDTAVYYCASTLGLVLDAMDYWGQGTLVTVSS VL: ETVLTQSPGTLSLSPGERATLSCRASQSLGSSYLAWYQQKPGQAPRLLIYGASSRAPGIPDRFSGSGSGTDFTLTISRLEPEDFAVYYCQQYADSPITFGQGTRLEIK", "kd var/kd wt", 1.4),
    ("I54F (antibody, V domains shown, GC1008 IgG4 variant) VH: QVQLVQSGAEVKKPGSSVKVSCKASGYTFSSNVISWVRQAPGQGLEWMGGVIPFVDIANYAQRFKGRVTITADESTSTTYMELSSLRSEDTAVYYCASTLGLVLDAMDYWGQGTLVTVSS VL: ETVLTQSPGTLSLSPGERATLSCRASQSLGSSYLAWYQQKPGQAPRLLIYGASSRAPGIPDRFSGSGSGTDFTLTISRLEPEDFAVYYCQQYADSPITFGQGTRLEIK", "kd var/kd wt", 0.7),
]

INPUT: # query: kd var/kd wt of entry I54W (antibody, V domains shown, GC1008 IgG4 variant) VH: QVQLVQSGAEVKKPGSSVKVSCKASGYTFSSNVISWVRQAPGQGLEWMGGVIPWVDIANYAQRFKGRVTITADESTSTTYMELSSLRSEDTAVYYCASTLGLVLDAMDYWGQGTLVTVSS VL: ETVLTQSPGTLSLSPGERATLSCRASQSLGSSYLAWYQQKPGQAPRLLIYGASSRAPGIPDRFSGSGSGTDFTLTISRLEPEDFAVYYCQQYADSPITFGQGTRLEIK
OUTPUT: 1.2
